Target: T1, human CD166 protein (human, UniProt Q13740 28-526, limits assumed)
T1 construct: Isolated human CD166 protein coated on ELISA plates; also called ALCAM
T1 sequence (looked up): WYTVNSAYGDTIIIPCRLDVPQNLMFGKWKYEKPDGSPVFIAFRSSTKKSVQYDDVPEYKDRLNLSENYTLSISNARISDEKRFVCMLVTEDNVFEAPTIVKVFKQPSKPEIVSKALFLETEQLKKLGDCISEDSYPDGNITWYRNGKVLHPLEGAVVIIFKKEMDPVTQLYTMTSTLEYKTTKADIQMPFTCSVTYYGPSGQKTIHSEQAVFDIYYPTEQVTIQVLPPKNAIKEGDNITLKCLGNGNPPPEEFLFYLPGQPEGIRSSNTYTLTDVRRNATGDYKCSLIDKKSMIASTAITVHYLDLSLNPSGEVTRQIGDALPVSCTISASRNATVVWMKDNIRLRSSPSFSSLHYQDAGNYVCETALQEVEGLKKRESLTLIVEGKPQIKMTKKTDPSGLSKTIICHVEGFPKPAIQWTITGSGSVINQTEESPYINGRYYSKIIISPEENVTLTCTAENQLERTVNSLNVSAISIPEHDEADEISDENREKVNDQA
Assay: ELISA; relative to parental CD166 M9 vk1/HcB
Measured Metric: Fold Increase in Kd (fold)

# Binder, Measured Metric, Unit Abbrev, Quantitative Result
records = [
    ("CD166-7614.9-2001 (antibody) chain 1: QITLKESGPTLVKPTQTLTLTCTFSGFSLSTYGMGVGWIRQPPGKALEWLANIWWSEDKHYSPSLKSRLTITKDTSKNQVVLTMTNMDPVDTATYYCVQIDYGNDYAFTYWGQGTLVTVSS chain 2: QGQSGQGLCHPLVLSAAESCSSGGGSSGGSISSGLLSGRSDNHGGGSDIVMTQSPLSLPVTPGEPASISCRSSKSLLHSNGITYLYWYLQKPGQSPQLLIYQMSNLASGVPDRFSGSGSGTDFTLKISRVEAEDVGVYYCAQNLELPYTFGQGTKLEIK", "Fold Increase in Kd", "fold", 120),
]
